Where do the numbers come from? From the RepoRT retention time repository (doi:10.1016/j.jpba.2019.06.042).

assay: Agilent ZORBAX Eclipse Plus C18, 150 × 2.1 mm, 3.5 µm, 0.2 mL/min, estimated dead time 1.7 min; A: water + 0.1% formic acid; B: acetonitrile; gradient (min/%B) 0/10 20/54 23/100 32/100
measurement.setup: stereoisomer not certain
Entries and their measured LC retention time follow.
value.kind: LC retention time (min)

>  <compound>
CC(C)=CCc1c(O)cc(O)c2c(=O)c3ccc(O)c(O)c3oc12

>  <value.kind>
LC retention time

>  <recorded.result>
28.8

$$$$
>  <compound>
O=c1cc(-c2ccc(O)c(-c3c(O)cc(O)c4c(=O)cc(-c5ccc(O)cc5)oc34)c2)oc2cc(O)cc(O)c12

>  <value.kind>
LC retention time

>  <recorded.result>
14.9

$$$$
>  <compound>
O=C(O)C1OC(Oc2c(-c3ccc(O)c(O)c3)oc3cc(O)cc(O)c3c2=O)C(O)C(O)C1O (stereo not given)

>  <value.kind>
LC retention time

>  <recorded.result>
9.3

$$$$
>  <compound>
O=C1c2c(O)cc(O)cc2OC(c2ccc(O)cc2)C1O (stereo not given)

>  <value.kind>
LC retention time

>  <recorded.result>
14

$$$$
>  <compound>
O=C(C=Cc1ccc(O)c(O)c1)OC1C(O)CC(O)(C(=O)O)CC1O (stereo not given)

>  <value.kind>
LC retention time

>  <recorded.result>
6.6

$$$$
>  <compound>
CC(C)(OC1OC(CO)C(O)C(O)C1O)C1CCC(CO)(C(O)CO)O1 (stereo not given)

>  <value.kind>
LC retention time

>  <recorded.result>
23.6

$$$$
>  <compound>
O=c1c(O)c(-c2ccc(O)c(O)c2)oc2cc(O)cc(O)c12

>  <value.kind>
LC retention time

>  <recorded.result>
10.6

$$$$
>  <compound>
Cc1c(O)c(CC2=C(O)C(C)(C)C(=O)C(C(=O)C(C)C)=C2O)c(O)c(C(=O)C(C)C)c1O

>  <value.kind>
LC retention time

>  <recorded.result>
20.1

$$$$
>  <compound>
COc1cc(O)c2c(=O)c(O)c(-c3ccc(O)cc3)oc2c1

>  <value.kind>
LC retention time

>  <recorded.result>
12.5

$$$$
>  <compound>
CCC(C)C(=O)c1c(O)c(C)c(O)c(CC2=C(O)C(C)(C)C(=O)C(C(=O)C(C)C)=C2O)c1O (stereo not given)

>  <value.kind>
LC retention time

>  <recorded.result>
18.4

$$$$
>  <compound>
CCC(C)C(=O)c1c(O)c(C)c(OCC=C(C)CCC=C(C)C)c(C(C)=O)c1O (stereo not given)

>  <value.kind>
LC retention time

>  <recorded.result>
15.4

$$$$
>  <compound>
O=C1CC(c2ccc(O)cc2)Oc2cc(O)cc(O)c21 (stereo not given)

>  <value.kind>
LC retention time

>  <recorded.result>
15

$$$$
>  <compound>
O=c1c(-c2c(O)cc(O)c3c(=O)cc(-c4ccc(O)cc4)oc23)c(-c2ccc(O)cc2)oc2cc(O)cc(O)c12

>  <value.kind>
LC retention time

>  <recorded.result>
13.6

$$$$
>  <compound>
CC(C)=CCC1CC2(CC=C(C)C)C(=O)C(=C(O)c3ccccc3)C(=O)C(CC=C(C)C)(C2=O)C1(C)C (stereo not given)

>  <value.kind>
LC retention time

>  <recorded.result>
20.4

$$$$
>  <compound>
COc1ccc2c(=O)c3cccc(O)c3oc2c1

>  <value.kind>
LC retention time

>  <recorded.result>
25.7

$$$$
>  <compound>
CC1(C)C=Cc2c(cc(O)c3c(=O)c4cccc(O)c4oc23)O1

>  <value.kind>
LC retention time

>  <recorded.result>
29

$$$$
>  <compound>
O=C(O)C1(O)CC(O)C(O)C(O)C1 (stereo not given)

>  <value.kind>
LC retention time

>  <recorded.result>
3.1

$$$$
>  <compound>
CC1(C)C=Cc2c(cc(O)c3c(=O)c4ccc(O)c(O)c4oc23)O1

>  <value.kind>
LC retention time

>  <recorded.result>
15.6

$$$$
>  <compound>
CC(C)=CCCC(C)=CCc1c(O)c(CC2=C(O)C(C)(C)C(=O)C(C(=O)C(C)C)=C2O)c(O)c(C(=O)C(C)C)c1O

>  <value.kind>
LC retention time

>  <recorded.result>
18.3

$$$$
>  <compound>
O=c1c(OC2OC(CO)C(O)C(O)C2O)c(-c2ccc(O)c(O)c2)oc2cc(O)cc(O)c12 (stereo not given)

>  <value.kind>
LC retention time

>  <recorded.result>
8.8

$$$$

---

assay: Agilent ZORBAX Eclipse Plus C18, 150 × 2.1 mm, 3.5 µm, 0.2 mL/min, estimated dead time 1.7 min; A: water + 0.1% formic acid; B: acetonitrile; gradient (min/%B) 0/10 20/54 23/100 32/100
measurement.setup: stereoisomer not certain
Please enter 1 where LC retention time is greater than or equal to 10 min, and 0 where it is lower.

>  <compound>
O=c1c2cccc(O)c2oc2cc(O)cc(O)c12

>  <group.label>
1

$$$$
>  <compound>
O=c1c(O)c(-c2ccc(O)cc2)oc2cc(O)cc(O)c12

>  <group.label>
1

$$$$
>  <compound>
COc1cc(C=CC(=O)O)cc(OC)c1O

>  <group.label>
1

$$$$
>  <compound>
O=C(C=Cc1ccc(O)c(O)c1)OC1CC(O)(C(=O)O)CC(O)C1O (stereo not given)

>  <group.label>
0

$$$$

---

Entries and their measured LC retention time follow.
assay: Agilent ZORBAX Eclipse Plus C18, 150 × 2.1 mm, 3.5 µm, 0.2 mL/min, estimated dead time 1.7 min; A: water + 0.1% formic acid; B: acetonitrile; gradient (min/%B) 0/10 20/54 23/100 32/100
measurement.setup: stereoisomer not certain

>  <compound>
CC1OC(Oc2cc(O)c3c(=O)c(O)c(-c4ccc(O)cc4)oc3c2)C(O)C(O)C1O (stereo not given)

>  <LC retention time [min]>
10.2

$$$$
>  <compound>
COc1ccc2ccc(=O)oc2c1

>  <LC retention time [min]>
22.7

$$$$
>  <compound>
CC1OC(OCC2OC(Oc3c(-c4ccc(O)c(O)c4)oc4cc(O)cc(O)c4c3=O)C(O)C(O)C2O)C(O)C(O)C1O (stereo not given)

>  <LC retention time [min]>
9.7

$$$$
>  <compound>
O=C1c2c(O)cc(O)cc2OC(c2ccc(O)c(O)c2)C1O (stereo not given)

>  <LC retention time [min]>
11.6

$$$$
>  <compound>
O=c1ccc2ccc(O)cc2o1

>  <LC retention time [min]>
20.5

$$$$
>  <compound>
COc1c(-c2ccc(O)c(O)c2)oc2cc(O)cc(O)c2c1=O

>  <LC retention time [min]>
12.2

$$$$
>  <compound>
C=C(C)C1CC=C2C(O)CC(O)C(C)C2(C)C1 (stereo not given)

>  <LC retention time [min]>
31.6

$$$$
>  <compound>
COc1ccc2ccc(=O)oc2c1CC=C(C)C

>  <LC retention time [min]>
26

$$$$
>  <compound>
COc1cc2oc(-c3ccccc3)c(OC)c(=O)c2c(OC)c1OC

>  <LC retention time [min]>
15.9

$$$$
>  <compound>
CC1=CC(=O)CC(C)(C)C1(O)C=CC(C)OC1OC(CO)C(O)C(O)C1O (stereo not given)

>  <LC retention time [min]>
10.3

$$$$
